The entries below come with measured CC50 at 24 h values attached.
assay: in vitro; settings: Chlorocebus aethiops (African green monkey)
property-name: CC50 at 24 h (µg/mL)

[[record]]
compound = "O=C1C(=Cc2cn(CCCCCCOc3cc(C(F)(F)F)nc4ccccc34)c3ccccc23)SC(=S)N1CCc1ccccc1 (mixture of isomers) [9h]"
numeric_result = 258

[[record]]
compound = "O=C1C(=Cc2cn(CCCCCCOc3cc(C(F)(F)F)nc4ccc(Cl)cc34)c3ccccc23)SC(=S)N1CCc1ccccc1 (mixture of isomers) [9j]"
numeric_result = 380

[[record]]
compound = "O=C1C(=Cc2cn(CCCCCCOc3cc(C(F)(F)F)nc4ccc(F)cc34)c3ccccc23)SC(=S)N1CCc1ccccc1 (mixture of isomers) [9i]"
numeric_result = 262

